System: Lolium perenne (LOLPE)
Procedure summary: Experiment B1 glasshouse herbicide test, pre- and post-emergence, percentage damage
Type: in vivo
Condition summary: POST Application (post-emergence, after 8 days cultivation), 1000 g/h, evaluated after 13 days
# percentage damage caused to the plant, five point scale, LOLPE listing for each entry below
Outcome measure: percentage damage caused to the plant, five point scale, LOLPE

[[record]]
molecular_string = "CCCn1nnnc1NC(=O)c1cc2cccnc2c(-c2ccccc2)c1C(F)(F)F"
value_observed = "1 (1=0-19%)"

[[record]]
molecular_string = "CSc1c(C(=O)Nc2nnnn2C)cc2cccnc2c1-c1ccccc1"
value_observed = "5 (5=80-100%)"

[[record]]
molecular_string = "O=C(Nc1nnnn1-c1ccccc1)c1cc2cccnc2c(-c2ccccc2)c1C(F)(F)F"
value_observed = "1 (1=0-19%)"

[[record]]
molecular_string = "CCn1nnnc1NC(=O)c1cc2cccnc2c(-c2ccccc2)c1C(F)(F)F"
value_observed = "5 (5=80-100%)"

[[record]]
molecular_string = "Cn1nnnc1NC(=O)c1cc2cc(F)cnc2c(-c2ccccc2)c1C(F)(F)F"
value_observed = "5 (5=80-100%)"

[[record]]
molecular_string = "COc1ccc(-c2c(C)c(C(=O)Nc3nnnn3C)cc3ccc(C)nc23)cc1"
value_observed = "5 (5=80-100%)"

[[record]]
molecular_string = "Cn1nnnc1NC(=O)c1cc2cccnc2c(-c2ccccc2)c1C(F)(F)F"
value_observed = "5 (5=80-100%)"

[[record]]
molecular_string = "Cc1c(C(=O)Nc2nnnn2C)cc2cccnc2c1-c1ccc(Cl)cc1"
value_observed = "4 (4=60-79%)"

[[record]]
molecular_string = "Cc1ccc2cc(C(=O)Nc3nnnn3C)c(C)c(-c3ccc(S(C)(=O)=O)cc3)c2n1"
value_observed = "5 (5=80-100%)"

[[record]]
molecular_string = "COc1ccc(-c2c(C)c(C(=O)Nc3nnnn3C)cc3cccnc23)cc1"
value_observed = "4 (4=60-79%)"

[[record]]
molecular_string = "Cn1nnnc1NC(=O)c1cc2cccnc2c(-c2ccccc2)c1Cl"
value_observed = "5 (5=80-100%)"

[[record]]
molecular_string = "Cc1ccc(-c2c(C(F)(F)F)c(C(=O)Nc3nnnn3C)cc3cccnc23)cc1"
value_observed = "4 (4=60-79%)"

[[record]]
molecular_string = "CSc1ccc(-c2c(C)c(C(=O)Nc3nnnn3C)cc3cccnc23)cc1"
value_observed = "4 (4=60-79%)"

[[record]]
molecular_string = "Cc1c(C(=O)Nc2nnnn2C)cc2cccnc2c1-c1ccc(S(C)(=O)=O)cc1"
value_observed = "5 (5=80-100%)"

[[record]]
molecular_string = "Cc1c(C(=O)Nc2nnnn2C)cc2cccnc2c1-c1ccc(F)cc1"
value_observed = "4 (4=60-79%)"

[[record]]
molecular_string = "COc1c(C(=O)Nc2nnnn2C)cc2cccnc2c1-c1ccccc1"
value_observed = "4 (4=60-79%)"


* * *

# percentage damage caused to the plant, five point scale, SETFA listing for each entry below
Test system: Setaria faberi (SETFA)
Procedure summary: Experiment B1 glasshouse herbicide test, pre- and post-emergence, percentage damage
Type: in vivo
Condition summary: POST Application (post-emergence, after 8 days cultivation), 1000 g/h, evaluated after 13 days
Outcome measure: percentage damage caused to the plant, five point scale, SETFA

[[record]]
molecular_string = "Cc1c(C(=O)Nc2nnnn2C)cc2cccnc2c1-c1ccc(S(C)(=O)=O)cc1"
value_observed = "5 (5=80-100%)"

[[record]]
molecular_string = "COc1ccc(-c2c(C)c(C(=O)Nc3nnnn3C)cc3ccc(C)nc23)cc1"
value_observed = "5 (5=80-100%)"

[[record]]
molecular_string = "COc1ccc(-c2c(C)c(C(=O)Nc3nnnn3C)cc3cccnc23)cc1"
value_observed = "5 (5=80-100%)"

[[record]]
molecular_string = "CSc1ccc(-c2c(C)c(C(=O)Nc3nnnn3C)cc3cccnc23)cc1"
value_observed = "5 (5=80-100%)"

